Target: human SIRPαBIT expressed on cells (human) (UniProt P78324)
Sequence (P78324 31-504): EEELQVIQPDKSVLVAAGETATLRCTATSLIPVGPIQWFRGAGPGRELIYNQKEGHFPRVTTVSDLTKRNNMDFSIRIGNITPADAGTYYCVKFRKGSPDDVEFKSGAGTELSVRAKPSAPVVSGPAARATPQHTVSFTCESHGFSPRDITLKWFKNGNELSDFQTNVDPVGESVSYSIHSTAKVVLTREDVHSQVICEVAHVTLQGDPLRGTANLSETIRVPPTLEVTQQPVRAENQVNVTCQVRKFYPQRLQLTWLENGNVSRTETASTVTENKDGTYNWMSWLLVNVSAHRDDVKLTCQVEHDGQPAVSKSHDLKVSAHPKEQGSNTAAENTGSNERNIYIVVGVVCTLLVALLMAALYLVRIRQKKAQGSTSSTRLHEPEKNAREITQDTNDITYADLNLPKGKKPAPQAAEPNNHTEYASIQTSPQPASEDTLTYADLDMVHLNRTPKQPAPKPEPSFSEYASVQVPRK
Experiment: flow cytometry, U937 cells

binder	EC50
anti-SIRPα antibody 3 (antibody, human IgG1, kappa, L234A L235A, V domains shown, Rabbit variable regions on human IgG1 LALA / kappa) VH: QSVEESGGRLVTPGTPLTLACTVSGFSLISYYISWVRQAPEKGLEYIGIINIGGGASYASWAKGRFTISKTSTTVDLKITSPTPEDTATYFCAMSYGMDTGAFNIWGPGTLVTVSL VL: AQVLTQTPASVSAAVGGTVTISCQSSESVYKNNFLSWYQQKPGKPPKLLIYGASTLASGVPSRFKGSGSGTQFTLTISDLESDDAATYFCQGGYRTDIYPFGGGTEVVVKR	0.22 µg/mL
KWAR23 huIgG1LALA (antibody, V domains shown) VH: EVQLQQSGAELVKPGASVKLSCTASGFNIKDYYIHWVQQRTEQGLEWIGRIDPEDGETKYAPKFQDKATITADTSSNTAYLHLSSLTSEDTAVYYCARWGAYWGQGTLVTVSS VL: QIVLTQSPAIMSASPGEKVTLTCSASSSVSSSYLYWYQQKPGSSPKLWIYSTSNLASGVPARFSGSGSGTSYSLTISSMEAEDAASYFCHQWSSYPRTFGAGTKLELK	0.09 µg/mL
anti-SIRPα antibody 4 (antibody, human IgG1, kappa, L234A L235A, V domains shown, Chimeric: rabbit variable regions on human IgG1 LALA / kappa; also called chimeric antibody 4) VH: QSVEESGGRLGTPGTPLTLTCTVSGFSLSSYVMGWFRQAPGKGLEYIGIISSSGSPYYASWVNGRFTISKTSTTMDLKMNSPTTEDTATYFCARVGPLGVDYFNIWGPGTLVTVSL VL: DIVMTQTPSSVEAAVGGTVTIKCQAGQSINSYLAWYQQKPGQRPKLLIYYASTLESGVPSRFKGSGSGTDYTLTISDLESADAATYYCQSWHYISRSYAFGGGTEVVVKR	0.12 µg/mL
anti-SIRPα antibody 12 humanized (antibody, human IgG1, kappa, L234A L235A, V domains shown, Humanized, human IgG1 LALA / kappa) VH: VQLVESGGRLVQPGTPLTLSCTVSGFSLSSYVMGWFRQAPGKGLEYIGIISSSGSPYYASWVNGRFTISKTSTTMDLKMNSLRSEDTATYFCARVGPLGVDYFNIWGPGTLVTVSS VL: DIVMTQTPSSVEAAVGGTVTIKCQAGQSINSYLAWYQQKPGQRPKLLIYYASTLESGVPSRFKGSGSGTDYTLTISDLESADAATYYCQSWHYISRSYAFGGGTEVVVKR	0.2 µg/mL
anti-SIRPα antibody 5 (antibody, human IgG1, kappa, L234A L235A, V domains shown, Rabbit variable regions on human IgG1 LALA / kappa) VH: QSVEESGGRLVTPGTPLTLTCTVSGFSLSSYVMGWFRQAAGKGLEYIGYINADGSPYYATWVNGRFTISKTPTTMDLKINSPTTEDTATYFCARVGPLGVDYFNIWGPGTLVTVSL VL: DIVMTQTPASVEAAVGGTVTIKCQASQSINRYLTWYQQKPGQRPKLLIYYASTLESGVPSRFEGSGSGTDYTLTISDLESADAATYYCQSYYYISRTYAFGGGTEVVVKR	0.16 µg/mL
